Listed binders paired with reported binding relative to negative control mIgG2
- target-under-test: iC3b (UniProt P01024)
- method-summary: binding screen of Example 5; method and unit not stated
Please give only the number in your answer, with no unit.

Please review the following examples before continuing.
- binder: "antibody 63A3 (antibody, V domains shown) VH: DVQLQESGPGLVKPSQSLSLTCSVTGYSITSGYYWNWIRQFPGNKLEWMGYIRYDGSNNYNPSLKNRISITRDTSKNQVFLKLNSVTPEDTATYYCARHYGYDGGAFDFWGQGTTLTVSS VL: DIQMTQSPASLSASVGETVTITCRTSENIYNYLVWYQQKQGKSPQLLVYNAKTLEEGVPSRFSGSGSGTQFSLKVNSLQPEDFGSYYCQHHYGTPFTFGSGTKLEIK"
  numeric-value: 0.72
- binder: "antibody 62F2 (antibody, V domains shown) VH: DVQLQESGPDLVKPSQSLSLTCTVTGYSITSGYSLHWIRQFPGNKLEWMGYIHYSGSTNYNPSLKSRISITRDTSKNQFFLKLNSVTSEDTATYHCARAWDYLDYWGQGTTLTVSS VL: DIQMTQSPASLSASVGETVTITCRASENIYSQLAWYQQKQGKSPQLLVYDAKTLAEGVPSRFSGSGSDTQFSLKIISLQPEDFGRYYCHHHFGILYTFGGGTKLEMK"
  numeric-value: 0.49

Here's the next entry for you.
input: Endpoint output: binding relative to negative control mIgG2 of antibody 3D8 (antibody, V domains shown) VH: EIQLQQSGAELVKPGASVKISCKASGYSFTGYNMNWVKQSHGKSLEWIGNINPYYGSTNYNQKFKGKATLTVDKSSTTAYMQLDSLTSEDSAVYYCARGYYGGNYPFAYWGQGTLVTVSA VL: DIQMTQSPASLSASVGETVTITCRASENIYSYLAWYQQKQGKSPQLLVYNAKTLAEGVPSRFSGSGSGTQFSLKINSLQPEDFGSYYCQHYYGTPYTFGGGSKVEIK . Value?
output: 0.29
